tested on: BDF1 mice, intracerebral L1210 leukemia, survival T/C; assay: NCI In Vivo Anticancer Drug Screen. Data for tumor model L1210 Leukemia (intracerebral) in B6D2F1 (BDF1) mice; conditions: endpoint: mean survival time; dose: 25.0 mg/kg/injection; schedule: Q01DX001 (ip); vehicle: saline
Inconclusive results and toxic doses are left out. How the source made its calls: active means survival T/C of 150% or more; inactive means T/C below 125% in these data.
Outcome codes: active, inactive

INSERT INTO results (compound, class_label) VALUES
  ('C=CC(CN1CC1)OC(C)=O (stereo unspecified)', 'inactive'),
  ('Cc1ncc(CNC(=O)N(CCCl)N=O)c(N)n1', 'active'),
  ('CS(=O)(=O)Nc1ccc(Nc2c3ccccc3nc3cc([N+](=O)[O-])ccc23)cc1', 'inactive'),
  ('O=NN(CCCl)C(=O)NC1CCCCC1', 'active'),
  ('O=NN(CCCl)C(=O)NC1CCCC1', 'active'),
  ('COc1cc(NS(C)(=O)=O)ccc1Nc1c2cccc(C)c2nc2c(C)cccc12', 'inactive');

====

tested on: BDF1 mice, intracerebral L1210 leukemia, survival T/C; test: NCI In Vivo Anticancer Drug Screen. Data for tumor model L1210 Leukemia (intracerebral) in B6D2F1 (BDF1) mice; conditions: endpoint: mean survival time; dose: 20.0 mg/kg/injection; schedule: Q01DX001 (ip); vehicle: carboxymethylcellulose (CMC)
Toxic doses and inconclusive results are not listed. How the source made its calls: active means survival T/C of 150% or more; inactive means T/C below 125% in these data.
Outcome codes: active, inactive

INSERT INTO results (compound, class_label) VALUES
  ('O=NN(CCCl)C(=O)Nc1c[nH]c(=O)[nH]c1=O', 'inactive'),
  ('O=CC(NC(=O)N(CCCl)N=O)C(O)C(O)C(O)CO (stereo unspecified)', 'inactive'),
  ('O=NN(CCCl)C(=O)NC1CCCCC1', 'active'),
  ('O=NN(CCF)C(=O)NC1CCCCC1', 'active'),
  ('Cc1cccc(C)c1NC(=O)N(CCCl)N=O', 'inactive'),
  ('O=NN(CCF)C(=O)Nc1c[nH]c(=O)[nH]c1=O', 'inactive');

====

Listed below: T/C values for each entry.
test system: BDF1 mice, intracerebral L1210 leukemia, survival T/C; assay: NCI In Vivo Anticancer Drug Screen. Data for tumor model L1210 Leukemia (intracerebral) in B6D2F1 (BDF1) mice; conditions: endpoint: mean survival time; dose: 20.0 mg/kg/injection; schedule: Q01DX009 (sc); vehicle: saline; higher = longer survival
Inconclusive results and toxic doses are left out.
Reported metric: T/C

INSERT INTO measurements (cpd_smiles, result) VALUES
  ('CS(=O)(=O)Nc1ccc(Nc2c3ccccc3nc3ccccc23)cc1', '96 % of control'),
  ('Cc1cccc2c(Nc3ccc(NS(C)(=O)=O)cc3)c3ccc([N+](=O)[O-])cc3nc12', '101 % of control'),
  ('CS(=O)(=O)Nc1ccc(Nc2c3ccccc3nc3cc(Cl)ccc23)cc1', '102 % of control'),
  ('COc1cc(NS(C)(=O)=O)ccc1Nc1c2ccccc2nc2ccccc12', '109 % of control'),
  ('Cc1cccc2c(Nc3ccc(NS(C)(=O)=O)cc3)c3ccccc3nc12', '101 % of control');

====

System: BDF1 mice, intracerebral L1210 leukemia, survival T/C
Experiment: NCI In Vivo Anticancer Drug Screen. Data for tumor model L1210 Leukemia (intracerebral) in B6D2F1 (BDF1) mice
Settings: endpoint: mean survival time; dose: 10.0 mg/kg/injection; schedule: Q01DX009 (ip); vehicle: saline
Experimental: The antitumor activity of compounds was measured in mice bearing transplantable tumors. Survival or tumor size were measured and the results are expressed as the measurement made in the treated group (T) divided by the measurement made in the vehicle treated control group (C). The tumor model used in this assay is L1210 Leukemia (intracerebral) in B6D2F1 (BDF1) mice
Inconclusive results and toxic doses are left out. Rule for the calls: active = survival T/C of 150% or more; inactive = T/C below 125% in these data.
Outcome codes: class 1 = active, class 0 = inactive

INSERT INTO results (compound, class_label) VALUES
  ('COc1cc(NS(C)(=O)=O)ccc1Nc1c2ccccc2nc2ccccc12', 'class 0'),
  ('CS(=O)(=O)Nc1ccc(Nc2c3ccccc3nc3cc(Cl)ccc23)cc1', 'class 0'),
  ('CC(=O)NC1=C(N2CC2C)C(=O)C(NC(C)=O)=C(N2CC2C)C1=O (configuration not stated)', 'class 0'),
  ('Cc1cccc2c(Nc3ccc(NS(C)(=O)=O)cc3)c3ccccc3nc12', 'class 0'),
  ('CS(=O)(=O)Nc1ccc(Nc2c3ccccc3nc3ccccc23)cc1', 'class 0'),
  ('CC1CCC(NC(=O)N(CCCl)N=O)CC1 (configuration not stated)', 'class 1'),
  ('Cc1cccc2c(Nc3ccc(NS(C)(=O)=O)cc3)c3ccc([N+](=O)[O-])cc3nc12', 'class 0');
